test: Cytotoxicity against Sprague-Dawley rat cortical neuron assessed as cell survival at 100 uM incubated for 48 hrs by CellTiter Glo-based luminescence assay relative to control; design: species or system Cortical neurone; settings: rat cortical neurons, read-out: Activity
Could you please report measured viability at 48 h, 100 µM for the items listed next?

Inquiry: Please give the measured viability at 48 h, 100 µM for this compound: "COC(=O)C1=CN(C)C(=O)[C@@H]2C(CN3CCN(Cc4ccc(F)cc4)CC3)=CC[C@H]12.Cl.Cl"
Reply text: 78.5%

Inquiry: Now give it for "COC(=O)C1=CN(C(C)C)C(=O)[C@@H]2C(CN3CCN(Cc4ccc(F)cc4)CC3)=CC[C@H]12.Cl.Cl" too.
Reply text: 80.9%

Inquiry: Same lookup for "COC(=O)C1=CN(C(C)C)C(=O)[C@@H]2C(CN3CCN(Cc4ccccc4)CC3)=CC[C@H]12.Cl.Cl" , please.
Reply text: 82.5%

Inquiry: Consider next the compound "COC(=O)C1=CN(C(C)C)C(=O)[C@@H]2C(CN3CCN(Cc4ccc([N+](=O)[O-])cc4)CC3)=CC[C@H]12.Cl.Cl" in the same way.
Reply text: 78.5%

---

assay: Cytotoxicity against Sprague-Dawley rat cortical neuron assessed as cell survival at 3.7 uM incubated for 48 hrs by CellTiter Glo-based luminescence assay relative to control; set-up: species or system Cortical neurone; details: rat cortical neurons, read-out: Activity
Would you kindly list viability at 48 h, 3.7 µM for each of these compounds?
The response must be a number in % with no trailing unit.

Inquiry: Give its viability at 48 h, 3.7 µM value. Item: "COC(=O)C1=CN(C(C)C)C(=O)[C@@H]2C(CN3CCN(Cc4ccc(F)cc4)CC3)=CC[C@H]12.Cl.Cl"
Reply text: 94.2

Inquiry: Proceed to "COC(=O)C1=CN(C)C(=O)[C@@H]2C(CN3CCN(Cc4ccc(F)cc4)CC3)=CC[C@H]12.Cl.Cl"
Reply text: 98.4

Inquiry: Please answer likewise for "COC(=O)C1=CN(C(C)C)C(=O)[C@@H]2C(CN3CCN(Cc4ccccc4)CC3)=CC[C@H]12.Cl.Cl"
Reply text: 90.7

Inquiry: Another compound: "COC(=O)C1=CN(C(C)C)C(=O)[C@@H]2C(CN3CCN(Cc4ccc([N+](=O)[O-])cc4)CC3)=CC[C@H]12.Cl.Cl"
Reply text: 97.2

---

assay: Neuroprotective activity against H2O2-induced neurotoxicity in Sprague-Dawley rat hippocampal neuron assessed as cell survival rate at 10 uM incubated for 24 hrs in presence of 150 uM H2O2 by MTT assay (reference value: 41.6 to 43.2 %); type: functional, Hippocampal neurone
parameter-measured: Activity (%)
# unit: % | format: bare number

Inquiry: Consider the compound "COC(=O)C1=CN(C(C)C)C(=O)[C@@H]2C(CN3CCN(Cc4ccc(F)cc4)CC3)=CC[C@H]12.Cl.Cl" and give its measured Activity.
Reply text: 72.4

Inquiry: Now consider "COC(=O)C1=CNC(=O)[C@@H]2C(CO)=CC[C@H]12" .
Reply text: 70.9

Inquiry: Cool, now "COC(=O)C1=CN(C)C(=O)[C@@H]2C(CN3CCN(Cc4ccc(F)cc4)CC3)=CC[C@H]12.Cl.Cl"
Reply text: 78.5

Inquiry: Also need "COC(=O)C1=CN(C(C)C)C(=O)[C@@H]2C(CN3CCN(Cc4ccccc4)CC3)=CC[C@H]12.Cl.Cl" , thanks.
Reply text: 76.2

Inquiry: Now the same for "COC(=O)C1=CN(C(C)C)C(=O)[C@@H]2C(CN3CCN(Cc4ccc([N+](=O)[O-])cc4)CC3)=CC[C@H]12.Cl.Cl"
Reply text: 82.1

Inquiry: Please give the result for "CC(=O)N[C@@H](CS)C(=O)O" too.
Reply text: 79.1

---

assay: Neuroprotective activity against H2O2-induced neurotoxicity in Sprague-Dawley rat hippocampal neuron assessed as cell survival rate at 1 uM incubated for 24 hrs in presence of 150 uM H2O2 by MTT assay (reference value: 41.6 to 43.2 %); assay type: functional, Hippocampal neurone
parameter-measured: Activity (%)
Report the value in % with no unit label.

Inquiry: Activity lookup needed for "COC(=O)C1=CN(C(C)C)C(=O)[C@@H]2C(CN3CCN(Cc4ccccc4)CC3)=CC[C@H]12.Cl.Cl" , thanks.
Reply text: 71

Inquiry: Same again, this time with "COC(=O)C1=CN(C(C)C)C(=O)[C@@H]2C(CN3CCN(Cc4ccc(F)cc4)CC3)=CC[C@H]12.Cl.Cl"
Reply text: 67.3

Inquiry: Try "COC(=O)C1=CNC(=O)[C@@H]2C(CO)=CC[C@H]12" next.
Reply text: 65.8

Inquiry: "CC(=O)N[C@@H](CS)C(=O)O" , same question.
Reply text: 69.5

Inquiry: What do we get for "COC(=O)C1=CN(C)C(=O)[C@@H]2C(CN3CCN(Cc4ccc(F)cc4)CC3)=CC[C@H]12.Cl.Cl" ?
Reply text: 70.3

Inquiry: Subsequent entry: "COC(=O)C1=CN(C(C)C)C(=O)[C@@H]2C(CN3CCN(Cc4ccc([N+](=O)[O-])cc4)CC3)=CC[C@H]12.Cl.Cl"
Reply text: 73.8

---

test system: Cortical neurone; experiment: Neuroprotective activity against OGD-induced neurotoxicity in Sprague-Dawley rat cortical neuron assessed as cell survival rate at 1 uM pretreated for 24 hrs followed by incubation in oxygen and glucose deprivation medium for 2 hrs followed by exposure to reoxygenation by re-incubating in normoxia condition for 24 hrs by MTT assay (reference value: 58.5 to 61.2 %); format: functional
parameter-measured: Activity

Inquiry: Recorded Activity for "COC(=O)C1=CN(C)C(=O)[C@@H]2C(CN3CCN(Cc4ccccc4)CC3)=CC[C@H]12.Cl.Cl" , please?
Reply text: 63.7%

Inquiry: What do we get for "COC(=O)C1=CN(C)C(=O)[C@@H]2C(CN3CCN(Cc4cccc(OC)c4)CC3)=CC[C@H]12.Cl.Cl" ?
Reply text: 63.8%

Inquiry: Also "COC(=O)C1=CN(C)C(=O)[C@@H]2C(CN3CCN(Cc4ccc(C(F)(F)F)cc4)CC3)=CC[C@H]12.Cl.Cl" , if possible.
Reply text: 72.2%

Inquiry: Request: "COC(=O)C1=CN(C)C(=O)[C@@H]2C(CN3CCN(Cc4ccc(F)cc4)CC3)=CC[C@H]12.Cl.Cl"
Reply text: 71.3%

Inquiry: Would you mind doing "COC(=O)C1=CN(C(C)C)C(=O)[C@@H]2C(CN3CCN(Cc4ccccc4)CC3)=CC[C@H]12.Cl.Cl" as well?
Reply text: 71.8%

Inquiry: Next compound: "COC(=O)C1=CN(C(C)C)C(=O)[C@@H]2C(CN3CCN(Cc4ccc(C)cc4)CC3)=CC[C@H]12.Cl.Cl"
Reply text: 73.1%

Inquiry: And "COC(=O)C1=CN(C(C)C)C(=O)[C@@H]2C(CN3CCN(Cc4cccc(OC)c4)CC3)=CC[C@H]12.Cl.Cl" ?
Reply text: 62.1%

Inquiry: Check "COC(=O)C1=CNC(=O)[C@@H]2C(CO)=CC[C@H]12" too.
Reply text: 69.4%

---

What viability at 48 h, 11.1 µM was measured for each of the following?
test: Cytotoxicity against Sprague-Dawley rat cortical neuron assessed as cell survival at 11.1 uM incubated for 48 hrs by CellTiter Glo-based luminescence assay relative to control; set-up: species or system Cortical neurone; conditions: rat cortical neurons, read-out: Activity
Just the number please, in %, no unit attached.

Inquiry: Entry "COC(=O)C1=CN(C(C)C)C(=O)[C@@H]2C(CN3CCN(Cc4ccc([N+](=O)[O-])cc4)CC3)=CC[C@H]12.Cl.Cl" has what viability at 48 h, 11.1 µM?
Reply text: 99.7

Inquiry: Same again, this time with "COC(=O)C1=CN(C)C(=O)[C@@H]2C(CN3CCN(Cc4ccc(F)cc4)CC3)=CC[C@H]12.Cl.Cl"
Reply text: 96.2

Inquiry: Field entry: "COC(=O)C1=CN(C(C)C)C(=O)[C@@H]2C(CN3CCN(Cc4ccc(F)cc4)CC3)=CC[C@H]12.Cl.Cl"
Reply text: 98.4

Inquiry: Also check "COC(=O)C1=CN(C(C)C)C(=O)[C@@H]2C(CN3CCN(Cc4ccccc4)CC3)=CC[C@H]12.Cl.Cl"
Reply text: 96.3
